Assay: Metabolic stability in human liver microsome
Assay type: in vitro ADME
Details: liver microsomes, NADPH, 60 min, read-out: Human liver microsome (t1/2, min)
Method: Clean incubation plates T60 and NCF60 were preheated at 37° C. for 10 min. Liver microsomes were diluted to a concentration of 0.56 mg/mL with 100 mM phosphate buffer, and 445 μL of the microsome working solution (0.56 mg/mL) was transferred to the preheated incubation plates T60 and NCF60, followed by incubation of the plates T60 and NCF60 with continuous shaking at 37° C. for 10 min. […]
MEASURED METRIC: half-life at 1 µM (min)

COMPOUND: CN(C)c1cc2nn([C@H]3CC[C@H](CN4CC[C@@H](n5cc6cc(C7CCC(=O)NC7=O)c(F)cc6n5)[C@H](F)C4)CC3)cc2cc1NC(=O)c1cnn2cccnc12 (stereo partly shown)
REPORTED RESULT: 107

COMPOUND: CN(C)c1cc2nn([C@H]3CC[C@H](CN4CCC(n5cc6c(F)cc(C7CCC(=O)NC7=O)cc6n5)CC4)CC3)cc2cc1NC(=O)c1cnn2cccnc12 (stereo partly shown)
REPORTED RESULT: 138

COMPOUND: CN(C)c1cc2nn([C@H]3CC[C@H](CN4C[C@H](F)[C@@H](n5cc6cc(C7CCC(=O)NC7=O)c(F)cc6n5)C4)CC3)cc2cc1NC(=O)c1cnn2cccnc12 (stereo partly shown)
REPORTED RESULT: 139

COMPOUND: CN(C)c1cc2nn([C@H]3CC[C@H](CN4C[C@@H](n5cc6cc(C7CCC(=O)NC7=O)c(F)cc6n5)[C@@H](F)C4)CC3)cc2cc1NC(=O)c1cnn2cccnc12 (stereo partly shown)
REPORTED RESULT: 106

COMPOUND: CN(C)c1cc2nn([C@H]3CC[C@H](CN4C[C@@H](F)[C@@H](n5cc6cc(C7CCC(=O)NC7=O)c(F)cc6n5)C4)CC3)cc2cc1NC(=O)c1cnn2cccnc12 (stereo partly shown)
REPORTED RESULT: 98.6

COMPOUND: CN(C)c1cc2nn([C@H]3CC[C@H](CN4CCC(n5cc6cc(F)c(C7CCC(=O)NC7=O)cc6n5)CC4)CC3)cc2cc1NC(=O)c1cnn2cccnc12 (stereo partly shown)
REPORTED RESULT: 124

COMPOUND: CN(C)c1cc2nn([C@H]3CC[C@H](CN4CC[C@H](n5cc6cc(F)c(C7CCC(=O)NC7=O)cc6n5)[C@H](F)C4)CC3)cc2cc1NC(=O)c1cnn2cccnc12 (stereo partly shown)
REPORTED RESULT: 101

====

Assay: Pharmacokinetic experiment on SD rats (iv and intragastric)
Assay type: in vivo
Details: Sprague-Dawley, rat, plasma, po, ig, 10.00 mg/kg

COMPOUND: CN(C)c1cc2nn([C@H]3CC[C@H](CN4C[C@H](F)[C@@H](n5cc6cc(C7CCC(=O)NC7=O)c(F)cc6n5)C4)CC3)cc2cc1NC(=O)c1cnn2cccnc12 (stereo partly drawn)
AUC / ng·h/mL: 8610
//
COMPOUND: CN(C)c1cc2nn([C@H]3CC[C@H](CN4C[C@@H](F)[C@@H](n5cc6cc(C7CCC(=O)NC7=O)c(F)cc6n5)C4)CC3)cc2cc1NC(=O)c1cnn2cccnc12 (stereo partly drawn)
AUC / ng·h/mL: 7990
//
COMPOUND: CN(C)c1cc2nn([C@H]3CC[C@H](CN4C[C@@H](F)[C@H](n5cc6cc(C7CCC(=O)NC7=O)c(F)cc6n5)C4)CC3)cc2cc1NC(=O)c1cnn2cccnc12 (stereo partly drawn)
AUC / ng·h/mL: 14500
//
COMPOUND: CN(C)c1cc2nn([C@H]3CC[C@H](CN4C[C@@H](n5cc6cc(C7CCC(=O)NC7=O)c(F)cc6n5)[C@@H](F)C4)CC3)cc2cc1NC(=O)c1cnn2cccnc12 (stereo partly drawn)
AUC / ng·h/mL: 14200
//
COMPOUND: CN(C)c1cc2nn([C@H]3CC[C@H](CN4CCC(n5cc6c(F)cc(N7CCC(=O)NC7=O)cc6n5)CC4)CC3)cc2cc1NC(=O)c1cnn2cccnc12
AUC / ng·h/mL: 3630
//
COMPOUND: CN(C)c1cc2nn([C@H]3CC[C@H](CN4C[C@@H](F)[C@H](n5cc6cc(C7CCC(=O)NC7=O)ccc6n5)C4)CC3)cc2cc1NC(=O)c1cnn2cccnc12 (stereo partly drawn)
AUC / ng·h/mL: 13000

====

Items are presented alongside their recorded pIC50.
System: R848-induced IL-6 secretion in human peripheral blood mononuclear cells (PBMCs)
Assay: Inhibition of R848-induced IL-6 secretion in human PBMCs (IL-6 ELISA)
Assay type: cell-based
Details: PBMC, R848 2.5 μg/mL, 20 h pre-incubation, 24 h stimulation
Protocol: This experiment was carried out in RPMI 1640 medium containing 10% FBS and 1% penicillin/streptomycin, with each of the compounds at an initial test concentration of 1 μM. […] PBMCs (Batch No.: P122101102C; Milecell Biotechnology Inc.) were counted and diluted to a cell concentration of 1.25×10^6 cells/mL, and then added to the aforementioned compound-containing 96-well plate at 160 μL per well. […] The supernatant was collected and diluted 120-fold, then detected using an IL-6 ELISA kit. […]
pIC50: −log10 of the molar value.

COMPOUND: CN(C)c1cc2nn([C@H]3CC[C@H](CN4C[C@@H](n5cc6cc(C7CCC(=O)NC7=O)ccc6n5)[C@@H](F)C4)CC3)cc2cc1NC(=O)c1cnn2cccnc12 (stereo partly drawn)
pIC50: 7.84
//
COMPOUND: CN(C)c1cc2nn([C@H]3CC[C@H](CN4CC[C@H](c5nc6cc(N7CCC(=O)NC7=O)ccc6o5)C4)CC3)cc2cc1NC(=O)c1cnn2cccnc12
pIC50: 7.86
//
COMPOUND: Cn1c(=O)n(C2CCC(=O)NC2=O)c2cccc(C#CCOC3CCN(C[C@H]4CC[C@H](n5cc(NC(=O)c6cnn7ccc(N8C[C@H]9C[C@@H]8CO9)nc67)c(C(F)F)n5)CC4)CC3)c21 (stereo partly drawn) [Positive compound, reference compound]
pIC50: 7.92

====

Molecular target: IRAK4 (Homo sapiens)
Construct: Effect of the Compounds on IRAK4 Protein Degradation in THP1 Cells; endogenous in cells; host or cells: THP-1 cells
Sequence (Q9NWZ3 1-460): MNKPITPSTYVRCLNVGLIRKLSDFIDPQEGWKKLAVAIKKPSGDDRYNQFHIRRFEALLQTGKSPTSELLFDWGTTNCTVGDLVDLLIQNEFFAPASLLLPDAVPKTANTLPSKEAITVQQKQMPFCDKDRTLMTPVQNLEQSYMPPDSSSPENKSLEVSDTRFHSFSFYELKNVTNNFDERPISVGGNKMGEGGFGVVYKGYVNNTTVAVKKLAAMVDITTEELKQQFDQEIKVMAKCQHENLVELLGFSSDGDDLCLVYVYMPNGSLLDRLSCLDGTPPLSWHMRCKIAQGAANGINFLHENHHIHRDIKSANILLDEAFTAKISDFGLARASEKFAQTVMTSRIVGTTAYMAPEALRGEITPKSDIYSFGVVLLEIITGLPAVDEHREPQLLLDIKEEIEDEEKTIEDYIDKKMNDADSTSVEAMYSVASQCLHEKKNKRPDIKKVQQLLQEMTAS
Test: IRAK4 protein degradation in THP1 cells (Western blot)
Type: cell-based
Conditions: THP-1 cells, 24 h
I'd appreciate it if you could label each record using DC50 and these ranges: small value (below 3 nM), mid value (3 nM to below 4 nM), large value (4 nM or more)

MOLECULE: CN(C)c1cc2nn([C@H]3CC[C@H](CN4C[C@@H]5[C@H](C4)[C@H]5n4cc5ccc(N6CCC(=O)NC6=O)cc5n4)CC3)cc2cc1NC(=O)c1cnn2cccnc12 [TM-182]
SYSTEM NAME: IRAK4 (Homo sapiens)
LABEL: mid value
--
MOLECULE: C[C@H]1CN(C[C@H]2CC[C@H](n3cc4cc(NC(=O)c5cnn6cccnc56)c(N(C)C)cc4n3)CC2)CC[C@@H]1n1cc2ccc(N3CCC(=O)NC3=O)cc2n1 [TM-27]
SYSTEM NAME: IRAK4 (Homo sapiens)
LABEL: large value
--
MOLECULE: CN(C)c1cc2nn([C@H]3CC[C@H](CN4CC[C@@H](n5cc6cc(C7CCC(=O)NC7=O)ccc6n5)[C@@H](F)C4)CC3)cc2cc1NC(=O)c1cnn2cccnc12 (some centres unmarked) [TM-156]
SYSTEM NAME: IRAK4 (Homo sapiens)
LABEL: small value
--
MOLECULE: CN(C)c1cc2nn([C@H]3CC[C@H](CN4C[C@@H](F)[C@H](n5cc6cc(C7CCC(=O)NC7=O)ccc6n5)C4)CC3)cc2cc1NC(=O)c1cnn2cccnc12 (some centres unmarked) [TM-244]
SYSTEM NAME: IRAK4 (Homo sapiens)
LABEL: mid value
--
MOLECULE: CN(C)c1cc2nn(C3CCN(C[C@H]4CC[C@H](n5cc6cc(C7CCC(=O)NC7=O)c(F)cc6n5)CC4)CC3)cc2cc1NC(=O)c1cnn2cccnc12 (some centres unmarked) [TM-8]
SYSTEM NAME: IRAK4 (Homo sapiens)
LABEL: mid value
--
MOLECULE: CN(C)c1cc2nn([C@H]3CC[C@H](CN4CC[C@H](n5cc6ccc(C7CCC(=O)NC7=O)cc6n5)[C@H](F)C4)CC3)cc2cc1NC(=O)c1cnn2cccnc12 (some centres unmarked) [TM-153]
SYSTEM NAME: IRAK4 (Homo sapiens)
LABEL: small value
--
MOLECULE: CN(C)c1cc2nn([C@H]3CC[C@H](CN4CC[C@H](n5cc6cc(N7CCC(=O)NC7=O)c(F)cc6n5)[C@H](F)C4)CC3)cc2cc1NC(=O)c1cnn2cccnc12 [TM-130]
SYSTEM NAME: IRAK4 (Homo sapiens)
LABEL: large value
--
MOLECULE: CN(C)c1cc2nn(C3CCC(CN4C[C@@H](F)[C@H](n5cc6cc(N7CCC(=O)NC7=O)ccc6n5)C4)CC3)cc2cc1NC(=O)c1cnn2cccnc12 (some centres unmarked) [TM-208]
SYSTEM NAME: IRAK4 (Homo sapiens)
LABEL: mid value
--
MOLECULE: CN(C)c1cc2nn([C@H]3CC[C@H](CN4CCC5(CC4)C[C@@H](n4cc6cc(C7CCC(=O)NC7=O)c(F)cc6n4)CO5)CC3)cc2cc1NC(=O)c1cnn2cccnc12 (some centres unmarked) [TM-141]
SYSTEM NAME: IRAK4 (Homo sapiens)
LABEL: large value
--
MOLECULE: CN(C)c1cc2nn([C@H]3CC[C@H](CN4CC[C@H](n5cc6ccc(C7CCC(=O)NC7=O)cc6n5)[C@@H](F)C4)CC3)cc2cc1NC(=O)c1cnn2cccnc12 (some centres unmarked) [TM-151]
SYSTEM NAME: IRAK4 (Homo sapiens)
LABEL: small value
--
MOLECULE: CN(C)c1cc2nn([C@H]3CC[C@H](CN4CCN(c5nc6cc(C7CCC(=O)NC7=O)ccc6o5)CC4)CC3)cc2cc1NC(=O)c1cnn2cccnc12 (some centres unmarked) [TM-106]
SYSTEM NAME: IRAK4 (Homo sapiens)
LABEL: mid value
